target: human ether-à-go-go-related gene (hERG) potassium channel (human, UniProt Q12809); assay: primary screen, population patch clamp on CHO cells stably expressing hERG; higher = less effect of the substance;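 further: peak tail current of the secondary pulse compared with the same well before compound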
Sequence (Q12809 whole entry, looked up): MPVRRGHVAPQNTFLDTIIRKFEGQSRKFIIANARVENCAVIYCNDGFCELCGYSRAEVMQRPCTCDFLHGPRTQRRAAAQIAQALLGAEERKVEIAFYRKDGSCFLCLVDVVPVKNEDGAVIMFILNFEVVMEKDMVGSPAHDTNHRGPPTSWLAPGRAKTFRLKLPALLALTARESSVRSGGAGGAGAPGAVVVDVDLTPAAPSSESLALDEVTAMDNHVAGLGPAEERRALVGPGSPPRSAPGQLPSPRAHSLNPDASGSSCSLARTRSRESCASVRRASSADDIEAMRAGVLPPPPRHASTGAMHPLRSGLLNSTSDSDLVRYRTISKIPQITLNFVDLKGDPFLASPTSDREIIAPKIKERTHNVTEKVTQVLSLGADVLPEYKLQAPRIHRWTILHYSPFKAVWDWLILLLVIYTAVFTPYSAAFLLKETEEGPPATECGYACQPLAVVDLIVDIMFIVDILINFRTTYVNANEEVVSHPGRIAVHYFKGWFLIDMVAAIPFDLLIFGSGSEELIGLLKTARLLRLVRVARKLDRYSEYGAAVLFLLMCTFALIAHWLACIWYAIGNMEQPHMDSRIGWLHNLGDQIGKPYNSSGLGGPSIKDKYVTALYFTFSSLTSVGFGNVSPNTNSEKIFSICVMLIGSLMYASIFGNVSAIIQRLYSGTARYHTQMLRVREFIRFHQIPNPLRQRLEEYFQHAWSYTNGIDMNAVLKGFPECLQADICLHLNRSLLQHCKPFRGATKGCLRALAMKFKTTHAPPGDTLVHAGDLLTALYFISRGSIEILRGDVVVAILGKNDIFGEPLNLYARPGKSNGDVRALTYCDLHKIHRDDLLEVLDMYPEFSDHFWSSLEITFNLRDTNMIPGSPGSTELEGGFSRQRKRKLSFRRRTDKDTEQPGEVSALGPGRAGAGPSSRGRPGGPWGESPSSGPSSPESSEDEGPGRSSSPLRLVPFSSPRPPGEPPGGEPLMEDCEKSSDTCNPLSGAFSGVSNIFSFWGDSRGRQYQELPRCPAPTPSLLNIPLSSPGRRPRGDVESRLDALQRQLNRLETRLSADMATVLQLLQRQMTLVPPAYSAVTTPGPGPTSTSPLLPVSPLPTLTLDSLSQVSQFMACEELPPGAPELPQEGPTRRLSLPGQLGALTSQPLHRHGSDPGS
Screen size: about 310,000 compounds; about 14,000 (4.5%) showed an effect of 50% or more. Effects have a minus sign here. The sample as a whole holds a higher share of strong results than the screen did.
# class assignment by measured hERG current change (%, negative = inhibition) at 10uM: zone 1: < -40%; zone 2: ≥ -40% and < -10%; zone 3: ≥ -10%

# count of solved cases: 2
Cc1ccccc1Nc1nc(N)nc(COC(=O)CCS(=O)(=O)c2ccccc2)n1: zone 2
COc1ccc(N2C(=O)CCC(C(=O)N3CCN(c4ccccn4)CC3)C2c2ccc(F)cc2)cc1 (centres unmarked): zone 1

Which bin, given its hERG current change (%, negative = inhibition) at 10uM, does Cc1ccc(C(=O)NC(=S)Nc2cc(C(F)(F)F)ccc2Cl)cc1 occupy?
zone 3

Which bin, given its hERG current change (%, negative = inhibition) at 10uM, does Cc1cc(N(C)Cc2ccccc2)nc(-c2ccccc2)n1 occupy?
zone 2

Which bin, given its hERG current change (%, negative = inhibition) at 10uM, does COc1ccc(NC(=O)c2coc3ccccc23)cc1OC occupy?
zone 3
